System: RXRa homodimer (NR concentration 180 nM)
TEST SUMMARY: PBM binding z-score (relative to random genomic background probes); higher = stronger binding; sequences stand for … in GC…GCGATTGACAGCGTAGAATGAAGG
Heads up, the class ranges for PBM binding z-score are low = under 0.8, mid = from 0.8 up to 2, high = 2 and over

Look over these answered cases.
- AAAGACAGGTGAGTGAAGGTAACTCAGCTGGACG: low
- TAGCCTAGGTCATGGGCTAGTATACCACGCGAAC: high
- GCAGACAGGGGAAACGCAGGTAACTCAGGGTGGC: low

Task: Classify this sequence: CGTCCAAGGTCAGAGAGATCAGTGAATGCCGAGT
Result: high

Task: Consider next the sequence ATATGTAGGTTACATCCTGGTCATTCAGGCTATG in the same way.
Result: mid

Task: Consider next the sequence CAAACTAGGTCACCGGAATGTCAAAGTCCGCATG in the same way.
Result: high

Task: Consider next the sequence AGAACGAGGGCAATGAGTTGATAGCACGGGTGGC in the same way.
Result: mid

Task: Consider next the sequence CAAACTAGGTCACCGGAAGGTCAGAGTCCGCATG in the same way.
Result: high

Task: Consider next the sequence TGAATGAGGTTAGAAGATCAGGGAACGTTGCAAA in the same way.
Result: mid

Task: Consider next the sequence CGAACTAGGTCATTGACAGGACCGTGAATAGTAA in the same way.
Result: high

Task: Consider next the sequence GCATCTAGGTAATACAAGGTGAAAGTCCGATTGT in the same way.
Result: low

Task: Consider next the sequence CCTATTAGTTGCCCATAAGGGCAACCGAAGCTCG in the same way.
Result: low

Task: Consider next the sequence AGAACGAGGTTACCAAAGATCAGGGAAACGCTTG in the same way.
Result: high

Task: Consider next the sequence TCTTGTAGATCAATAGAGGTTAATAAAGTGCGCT in the same way.
Result: mid
